Numbers sourced from patent US20090098112A1.

Relative Fold to h7H5.v1 values, listed per item
# test target: T1, recombinant human integrin α5β1 (R&D) (human, UniProt P08648 42-995; P05556 21-728)
# T1 construct: Bought recombinant heterodimer (R&D); It was used coated on plates and in solution in the phage ELISA, and as analyte or immobilized in BIAcore; also called alpha5beta1; a5b1
# T1 sequence (P08648 42-995 limits assumed, chain 1 of 2): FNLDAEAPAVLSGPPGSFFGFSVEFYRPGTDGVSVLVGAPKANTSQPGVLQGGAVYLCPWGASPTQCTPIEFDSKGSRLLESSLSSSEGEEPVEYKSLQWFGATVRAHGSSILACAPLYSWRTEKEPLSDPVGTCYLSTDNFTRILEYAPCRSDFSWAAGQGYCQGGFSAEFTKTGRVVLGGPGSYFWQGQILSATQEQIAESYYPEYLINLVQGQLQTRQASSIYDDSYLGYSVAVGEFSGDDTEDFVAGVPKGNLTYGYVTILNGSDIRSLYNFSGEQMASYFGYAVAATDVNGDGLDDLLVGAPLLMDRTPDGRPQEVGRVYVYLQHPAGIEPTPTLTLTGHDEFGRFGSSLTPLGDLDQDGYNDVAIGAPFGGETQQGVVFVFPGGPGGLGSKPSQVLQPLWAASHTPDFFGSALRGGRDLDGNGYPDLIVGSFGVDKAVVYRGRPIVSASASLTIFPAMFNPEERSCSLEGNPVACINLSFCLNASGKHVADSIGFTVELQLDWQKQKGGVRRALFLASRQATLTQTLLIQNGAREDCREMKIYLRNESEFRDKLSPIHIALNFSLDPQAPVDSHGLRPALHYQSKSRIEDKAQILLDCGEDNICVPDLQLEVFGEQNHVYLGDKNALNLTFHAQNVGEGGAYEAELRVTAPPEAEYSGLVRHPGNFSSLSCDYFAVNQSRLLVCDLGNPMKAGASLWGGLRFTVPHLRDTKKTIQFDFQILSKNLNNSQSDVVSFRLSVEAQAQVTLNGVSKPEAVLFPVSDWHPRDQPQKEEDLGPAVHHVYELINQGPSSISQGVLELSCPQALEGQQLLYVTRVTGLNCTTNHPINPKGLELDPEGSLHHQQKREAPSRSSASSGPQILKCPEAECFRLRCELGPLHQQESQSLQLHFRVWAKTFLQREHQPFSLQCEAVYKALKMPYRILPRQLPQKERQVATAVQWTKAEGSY
# T1 sequence (P05556 21-728 limits assumed, chain 2 of 2): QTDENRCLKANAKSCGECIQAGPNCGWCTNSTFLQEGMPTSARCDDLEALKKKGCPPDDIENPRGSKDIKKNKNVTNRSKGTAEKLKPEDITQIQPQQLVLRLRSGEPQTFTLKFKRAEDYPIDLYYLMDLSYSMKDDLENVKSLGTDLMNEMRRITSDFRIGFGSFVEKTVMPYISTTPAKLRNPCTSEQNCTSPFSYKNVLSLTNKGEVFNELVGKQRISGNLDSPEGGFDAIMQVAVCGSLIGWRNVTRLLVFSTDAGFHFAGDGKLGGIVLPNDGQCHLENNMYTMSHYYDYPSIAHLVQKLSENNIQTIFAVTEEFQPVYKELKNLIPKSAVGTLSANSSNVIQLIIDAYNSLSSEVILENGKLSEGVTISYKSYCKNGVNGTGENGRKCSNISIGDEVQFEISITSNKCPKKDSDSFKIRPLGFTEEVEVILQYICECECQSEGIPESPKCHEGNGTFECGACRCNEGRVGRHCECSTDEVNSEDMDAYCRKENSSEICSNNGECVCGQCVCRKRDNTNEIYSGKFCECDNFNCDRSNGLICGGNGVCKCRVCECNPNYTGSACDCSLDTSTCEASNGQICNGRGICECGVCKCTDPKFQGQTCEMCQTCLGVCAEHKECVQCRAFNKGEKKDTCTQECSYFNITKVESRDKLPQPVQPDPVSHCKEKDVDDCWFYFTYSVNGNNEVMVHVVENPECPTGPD
# assay procedure: phage competition ELISA IC50 of the Fab-phage against human integrin α5β1, relative to parental h7H5.v1; down arrow = loss, up arrow = improvement of binding affinity
# Procedure: Substitutions with other resides at various positions was achieved by Kunkel mutagenesis using a separate oligonucleotide for each position. […] The IC50 values for binding affinity were determined by phage competition ELISA in FIG. 6. Two variants, h7H5.v2 and h7H5.v3 as indicated were selected to include glycine substitution at position 65 of CDR-H2, cloned into hIgG1 vector, and evaluated binding affinities using BIAcore instrument. […]
Quick note: give the figure in fold, leave out the unit.

Worked examples follow.
# binder, Relative Fold to h7H5.v1 [fold]
data = [
    ("CDR-H2:N60S (Fab, part only; not given: VH end, constant domains, phage fusion, V domains shown, not shown: another chain or arm of the molecule; a dimerising Fc or GST; large carriers) VL: DIQMTQSPSSLSASVGDRVTITCKASQNVGSDVAWYQQKPGKAPKTLIYSTSYRYSGVPSRFSGSGSGTDFTLTISSLQPEDFATYYCQQYNSYPFTFGQGTKVEIK VH: EVQLVESGGGLVQPGGSLRLSCAASGYTFTDYYLYWVRQAPGKGLEWIGGISPSNGGTTFSDNFENKATLSVDKSKNTAYLQMNSLRAEDTAVYYCTRDAYGDWYFDVWGQGT", 2.5),
    ("CDR-H2:N54A (Fab, part only; not given: VH end, constant domains, phage fusion, V domains shown, not shown: another chain or arm of the molecule; a dimerising Fc or GST; large carriers) VL: DIQMTQSPSSLSASVGDRVTITCKASQNVGSDVAWYQQKPGKAPKTLIYSTSYRYSGVPSRFSGSGSGTDFTLTISSLQPEDFATYYCQQYNSYPFTFGQGTKVEIK VH: EVQLVESGGGLVQPGGSLRLSCAASGYTFTDYYLYWVRQAPGKGLEWIGGISPSAGGTTFNDNFENKATLSVDKSKNTAYLQMNSLRAEDTAVYYCTRDAYGDWYFDVWGQGT", 2.4),
    ("CDR-H2:N62A (Fab, part only; not given: VH end, constant domains, phage fusion, V domains shown, not shown: another chain or arm of the molecule; a dimerising Fc or GST; large carriers) VL: DIQMTQSPSSLSASVGDRVTITCKASQNVGSDVAWYQQKPGKAPKTLIYSTSYRYSGVPSRFSGSGSGTDFTLTISSLQPEDFATYYCQQYNSYPFTFGQGTKVEIK VH: EVQLVESGGGLVQPGGSLRLSCAASGYTFTDYYLYWVRQAPGKGLEWIGGISPSNGGTTFNDAFENKATLSVDKSKNTAYLQMNSLRAEDTAVYYCTRDAYGDWYFDVWGQGT", 1),
    ("CDR-L1:N28S (Fab, V domains shown, Fab-phage; also called h7H5.v1 single point mutant, light chain N28S, Fab-phage; copies: 1 + 1) VH: EVQLVESGGGLVQPGGSLRLSCAASGYTFTDYYLYWVRQAPGKGLEWIGGISPSNGGTTFNDNFENKATLSVDKSKNTAYLQMNSLRAEDTAVYYCTRDAYGDWYFDVWGQGT VL: DIQMTQSPSSLSASVGDRVTITCKASQSVGSDVAWYQQKPGKAPKTLIYSTSYRYSGVPSRFSGSGSGTDFTLTISSLQPEDFATYYCQQYNSYPFTFGQGTKVEIK", 1.3),
    ("CDR-H2:N60A (Fab, part only; not given: VH end, constant domains, phage fusion, V domains shown, not shown: another chain or arm of the molecule; a dimerising Fc or GST; large carriers) VL: DIQMTQSPSSLSASVGDRVTITCKASQNVGSDVAWYQQKPGKAPKTLIYSTSYRYSGVPSRFSGSGSGTDFTLTISSLQPEDFATYYCQQYNSYPFTFGQGTKVEIK VH: EVQLVESGGGLVQPGGSLRLSCAASGYTFTDYYLYWVRQAPGKGLEWIGGISPSNGGTTFADNFENKATLSVDKSKNTAYLQMNSLRAEDTAVYYCTRDAYGDWYFDVWGQGT", 1.6),
    ("CDR-H2:N62S (Fab, part only; not given: VH end, constant domains, phage fusion, V domains shown, not shown: another chain or arm of the molecule; a dimerising Fc or GST; large carriers) VL: DIQMTQSPSSLSASVGDRVTITCKASQNVGSDVAWYQQKPGKAPKTLIYSTSYRYSGVPSRFSGSGSGTDFTLTISSLQPEDFATYYCQQYNSYPFTFGQGTKVEIK VH: EVQLVESGGGLVQPGGSLRLSCAASGYTFTDYYLYWVRQAPGKGLEWIGGISPSNGGTTFNDSFENKATLSVDKSKNTAYLQMNSLRAEDTAVYYCTRDAYGDWYFDVWGQGT", 1.3),
    ("CDR-L1:N28A (Fab, part only; not given: VH end, constant domains, phage fusion, V domains shown, not shown: another chain or arm of the molecule; large carriers) VL: DIQMTQSPSSLSASVGDRVTITCKASQAVGSDVAWYQQKPGKAPKTLIYSTSYRYSGVPSRFSGSGSGTDFTLTISSLQPEDFATYYCQQYNSYPFTFGQGTKVEIK VH: EVQLVESGGGLVQPGGSLRLSCAASGYTFTDYYLYWVRQAPGKGLEWIGGISPSNGGTTFNDNFENKATLSVDKSKNTAYLQMNSLRAEDTAVYYCTRDAYGDWYFDVWGQGT", 2.1),
    ("CDR-L3:N92S (Fab, V domains shown, Fab-phage; also called h7H5.v1 single point mutant, light chain N92S, Fab-phage; copies: 1 + 1) VH: EVQLVESGGGLVQPGGSLRLSCAASGYTFTDYYLYWVRQAPGKGLEWIGGISPSNGGTTFNDNFENKATLSVDKSKNTAYLQMNSLRAEDTAVYYCTRDAYGDWYFDVWGQGT VL: DIQMTQSPSSLSASVGDRVTITCKASQNVGSDVAWYQQKPGKAPKTLIYSTSYRYSGVPSRFSGSGSGTDFTLTISSLQPEDFATYYCQQYSSYPFTFGQGTKVEIK", 1),
    ("CDR-H2:N54S (Fab, part only; not given: VH end, constant domains, phage fusion, V domains shown, not shown: another chain or arm of the molecule; a dimerising Fc or GST; large carriers) VL: DIQMTQSPSSLSASVGDRVTITCKASQNVGSDVAWYQQKPGKAPKTLIYSTSYRYSGVPSRFSGSGSGTDFTLTISSLQPEDFATYYCQQYNSYPFTFGQGTKVEIK VH: EVQLVESGGGLVQPGGSLRLSCAASGYTFTDYYLYWVRQAPGKGLEWIGGISPSSGGTTFNDNFENKATLSVDKSKNTAYLQMNSLRAEDTAVYYCTRDAYGDWYFDVWGQGT", 1),
]

Turning to the following binder.
Request: Report measured Relative Fold to h7H5.v1; entry is CDR-L3:N92A (Fab, V domains shown, Fab-phage; also called h7H5.v1 single point mutant, light chain N92A, Fab-phage) VH: EVQLVESGGGLVQPGGSLRLSCAASGYTFTDYYLYWVRQAPGKGLEWIGGISPSNGGTTFNDNFENKATLSVDKSKNTAYLQMNSLRAEDTAVYYCTRDAYGDWYFDVWGQGT VL: DIQMTQSPSSLSASVGDRVTITCKASQNVGSDVAWYQQKPGKAPKTLIYSTSYRYSGVPSRFSGSGSGTDFTLTISSLQPEDFATYYCQQYASYPFTFGQGTKVEIK
Result: 1
